System: 454973-116-R2-J3-PDC spheroids, viability, % test/control
Assay: Anticancer human tumor 454973-116-R2-J3-PDC patient-derived pancreatic carcinoma cell line growth inhibition [GQUAD]
Details: second compound 1 µM; first compound 0.316 µM; active compounds read low; spheroids with HUVEC and MSC
Lab note: compare viability, T/C with 60%, writing 1 (yes) if less and 0 (no) if equal or more.

>>> discrete_label("COc1cc(C2c3cc4c(cc3C(OC3OC5COC(C)OC5C(O)C3O)C3COC(=O)C23)OCO4)cc(OC)c1O (configuration not stated) + Cc1cnc(CNC(=O)c2c(=O)c3ccc(N4CCCN(C)CC4)nc3n3c2sc2ccccc23)cn1")
"1 (yes)"
>>> discrete_label("Cc1cccc(N(C)C(=O)C2C(O)CCN2c2nc(C)cc(C(F)(F)F)c2C#N)c1 (configuration not stated) + CN(C)c1ccc(Nc2c3ccc(NC(=O)CCN4CCCC4)cc3nc3cc(NC(=O)CCN4CCCC4)ccc23)cc1")
"0 (no)"
>>> discrete_label("O=C(c1cc(Cc2n[nH]c(=O)c3ccccc23)ccc1F)N1CCN(C(=O)C2CC2)CC1 + Cc1cnc(CNC(=O)c2c(=O)c3ccc(N4CCCN(C)CC4)nc3n3c2sc2ccccc23)cn1")
"0 (no)"
>>> discrete_label("COc1ccc([C@@H](O)c2cc(-c3ncnc4cc(N5CCOCC5)ccc34)c(F)cc2Cl)nn1 + Cc1[nH]c2ccc(F)cc2c1-c1nc2c3cccnc3c3ncccc3c2[nH]1")
"0 (no)"
>>> discrete_label("COc1cc(C2c3cc4c(cc3C(OC3OC5COC(C)OC5C(O)C3O)C3COC(=O)C23)OCO4)cc(OC)c1O (configuration not stated) + Cc1[nH]c2ccc(F)cc2c1-c1nc2c3cccnc3c3ncccc3c2[nH]1")
"0 (no)"
>>> discrete_label("C=CCn1c(=O)c2cnc(Nc3ccc(N4CCN(C)CC4)cc3)nc2n1-c1cccc(C(C)(C)O)n1 + Cc1[nH]c2ccc(F)cc2c1-c1nc2c3cccnc3c3ncccc3c2[nH]1")
"0 (no)"

----------
System: 454973-116-R2-J3-PDC spheroids, viability, % test/control
Assay: Anticancer human tumor 454973-116-R2-J3-PDC cell line growth inhibition [GQUAD]; active = viability on the fitted dose curve at most 10% of control; inactive = the rest;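 note: spheroids exposed to compounds for seven days; 100% = DMSO vehicle control viability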
Settings: second compound 10 µM; first compound 0.0316 µM; spheroids with HUVEC and MSC
Text: DNA G-quadruplex Stabilizer Agents in Combinations in Complex Spheroids A high-throughput screen of multi-cell type tumor spheroids was designed to identify active combinations of DNA G-quadruplex stabilizer agents and targeted small molecules. […] Compounds. […] If the clinical Cmax for an agent had not been determined, the highest concentration tested was 10 microM. […]
Outcome codes: 1 (active), 0 (inactive)

>>> discrete_label("CC1COCCN1c1cc(C2(S(C)(=N)=O)CC2)nc(-c2ccnc3[nH]ccc23)n1 (stereo not given) + Cc1cnc(CNC(=O)c2c(=O)c3ccc(N4CCCN(C)CC4)nc3n3c2sc2ccccc23)cn1")
1
>>> discrete_label("Cn1ncnc1[C@H]1c2n[nH]c(=O)c3cc(F)cc(c23)N[C@@H]1c1ccc(F)cc1 + Cc1[nH]c2ccc(F)cc2c1-c1nc2c3cccnc3c3ncccc3c2[nH]1")
0
>>> discrete_label("COc1cc(C2c3cc4c(cc3C(OC3OC5COC(C)OC5C(O)C3O)C3COC(=O)C23)OCO4)cc(OC)c1O (stereo not given) + Cc1cnc(CNC(=O)c2c(=O)c3ccc(N4CCCN(C)CC4)nc3n3c2sc2ccccc23)cn1")
0
>>> discrete_label("CC(C)(O)C1CCC(Nc2ccc3ncc(-c4cccc(C(F)(F)F)c4)n3n2)CC1 (stereo not given) + Cc1cnc(CNC(=O)c2c(=O)c3ccc(N4CCCN(C)CC4)nc3n3c2sc2ccccc23)cn1")
0
>>> discrete_label("Nc1ccn(C2OC(CO)C(O)C2(F)F)c(=O)n1 (stereo not given) + Cc1cnc(CNC(=O)c2c(=O)c3ccc(N4CCCN(C)CC4)nc3n3c2sc2ccccc23)cn1")
1

----------
Reported viability, T/C values for a set of compounds
Test system: 454973-116-R2-J3-PDC spheroids, viability, % test/control
Assay: Anticancer human tumor 454973-116-R2-J3-PDC cell line growth inhibition [GQUAD];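 note: spheroids exposed to compounds for seven days; 100% = DMSO vehicle control viability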
Settings: second compound 0.316 µM; first compound 1 µM; active compounds read low; spheroids with HUVEC and MSC
Description: DNA G-quadruplex Stabilizer Agents in Combinations in Complex Spheroids A high-throughput screen of multi-cell type tumor spheroids was designed to identify active combinations of DNA G-quadruplex stabilizer agents and targeted small molecules. […] Compounds. […] If the clinical Cmax for an agent had not been determined, the highest concentration tested was 10 microM. […]
Property name: viability, T/C (%)

>>> val("COc1cc(C2c3cc4c(cc3C(OC3OC5COC(C)OC5C(O)C3O)C3COC(=O)C23)OCO4)cc(OC)c1O (stereo not drawn) + Cc1[nH]c2ccc(F)cc2c1-c1nc2c3cccnc3c3ncccc3c2[nH]1")
55.6
>>> val("COc1ccc([C@@H](O)c2cc(-c3ncnc4cc(N5CCOCC5)ccc34)c(F)cc2Cl)nn1 + Cc1cnc(CNC(=O)c2c(=O)c3ccc(N4CCCN(C)CC4)nc3n3c2sc2ccccc23)cn1")
42
>>> val("O=C(c1cc(Cc2n[nH]c(=O)c3ccccc23)ccc1F)N1CCN(C(=O)C2CC2)CC1 + Cc1[nH]c2ccc(F)cc2c1-c1nc2c3cccnc3c3ncccc3c2[nH]1")
91.7

----------
Test system: 454973-116-R2-J3-PDC spheroids, viability, % test/control
Test: Anticancer human tumor 454973-116-R2-J3-PDC cell line growth inhibition [GQUAD]; active = viability on the fitted dose curve at most 10% of control; inactive = the rest;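 note: spheroids exposed to compounds for seven days; 100% = DMSO vehicle control viability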
Conditions: second compound 1 µM; first compound 0.316 µM; spheroids with HUVEC and MSC
Outcome codes: active, inactive

>>> discrete_label("CC(C)(O)C1CCC(Nc2ccc3ncc(-c4cccc(C(F)(F)F)c4)n3n2)CC1 (stereo unspecified) + CN(C)c1ccc(Nc2c3ccc(NC(=O)CCN4CCCC4)cc3nc3cc(NC(=O)CCN4CCCC4)ccc23)cc1")
"inactive"
>>> discrete_label("O=c1[nH]cc(F)c(=O)[nH]1 + Cc1[nH]c2ccc(F)cc2c1-c1nc2c3cccnc3c3ncccc3c2[nH]1")
"inactive"
>>> discrete_label("O=c1[nH]cc(F)c(=O)[nH]1 + CN(C)c1ccc(Nc2c3ccc(NC(=O)CCN4CCCC4)cc3nc3cc(NC(=O)CCN4CCCC4)ccc23)cc1")
"inactive"
>>> discrete_label("CC(=O)O[C@H]1C(=O)[C@@]2(C)[C@H]([C@H](OC(=O)c3ccccc3)[C@]3(O)C[C@H](OC(=O)[C@H](O)[C@@H](NC(=O)c4ccccc4)c4ccccc4)C(C)=C1C3(C)C)[C@]1(OC(C)=O)CO[C@@H]1C[C@@H]2O + Cc1cnc(CNC(=O)c2c(=O)c3ccc(N4CCCN(C)CC4)nc3n3c2sc2ccccc23)cn1")
"inactive"
>>> discrete_label("CC[C@@]1(O)C(=O)OCc2c1cc1n(c2=O)Cc2cc3c(CN(C)C)c(O)ccc3nc2-1 + Cc1[nH]c2ccc(F)cc2c1-c1nc2c3cccnc3c3ncccc3c2[nH]1")
"inactive"
>>> discrete_label("Nc1ccn(C2OC(CO)C(O)C2(F)F)c(=O)n1 (stereo unspecified) + Cc1[nH]c2ccc(F)cc2c1-c1nc2c3cccnc3c3ncccc3c2[nH]1")
"inactive"
>>> discrete_label("C=CC(=O)N1CCN(c2nc(=O)n(-c3c(C)ccnc3C(C)C)c3nc(-c4c(O)cccc4F)c(F)cc23)C(C)C1 (stereo unspecified) + CN(C)c1ccc(Nc2c3ccc(NC(=O)CCN4CCCC4)cc3nc3cc(NC(=O)CCN4CCCC4)ccc23)cc1")
"inactive"
>>> discrete_label("CC1COCCN1c1cc(-c2ccnn2C)c2ccnc(-c3ccn[nH]3)c2n1 (stereo unspecified) + Cc1[nH]c2ccc(F)cc2c1-c1nc2c3cccnc3c3ncccc3c2[nH]1")
"inactive"
>>> discrete_label("CCCS(=O)(=O)Nc1ccc(F)c(C(=O)c2c[nH]c3ncc(-c4ccc(Cl)cc4)cc23)c1F + Cc1[nH]c2ccc(F)cc2c1-c1nc2c3cccnc3c3ncccc3c2[nH]1")
"inactive"
>>> discrete_label("O=C(c1cc(Cc2n[nH]c(=O)c3ccccc23)ccc1F)N1CCN(C(=O)C2CC2)CC1 + CN(C)c1ccc(Nc2c3ccc(NC(=O)CCN4CCCC4)cc3nc3cc(NC(=O)CCN4CCCC4)ccc23)cc1")
"inactive"
>>> discrete_label("C#Cc1c(F)ccc2cc(O)cc(-c3ncc4c(N5CC6CCC(C5)N6)nc(OCC56CCCN5CC(F)C6)nc4c3F)c12 (stereo unspecified) + CN(C)c1ccc(Nc2c3ccc(NC(=O)CCN4CCCC4)cc3nc3cc(NC(=O)CCN4CCCC4)ccc23)cc1")
"inactive"
>>> discrete_label("CC(C)(O)C1CCC(Nc2ccc3ncc(-c4cccc(C(F)(F)F)c4)n3n2)CC1 (stereo unspecified) + Cc1[nH]c2ccc(F)cc2c1-c1nc2c3cccnc3c3ncccc3c2[nH]1")
"inactive"
>>> discrete_label("Cc1[nH]c2ccccc2c1CCNCc1ccc(/C=C/C(=O)NO)cc1 + Cc1[nH]c2ccc(F)cc2c1-c1nc2c3cccnc3c3ncccc3c2[nH]1")
"active"
>>> discrete_label("COc1ccc([C@@H](O)c2cc(-c3ncnc4cc(N5CCOCC5)ccc34)c(F)cc2Cl)nn1 + CN(C)c1ccc(Nc2c3ccc(NC(=O)CCN4CCCC4)cc3nc3cc(NC(=O)CCN4CCCC4)ccc23)cc1")
"inactive"
>>> discrete_label("COc1cccc2c1C(=O)c1c(O)c3c(c(O)c1C2=O)CC(O)(C(=O)CO)CC3OC1CC(N)C(O)C(C)O1 (stereo unspecified) + Cc1cnc(CNC(=O)c2c(=O)c3ccc(N4CCCN(C)CC4)nc3n3c2sc2ccccc23)cn1")
"inactive"
>>> discrete_label("COc1ccc([C@@H](O)c2cc(-c3ncnc4cc(N5CCOCC5)ccc34)c(F)cc2Cl)nn1 + Cc1cnc(CNC(=O)c2c(=O)c3ccc(N4CCCN(C)CC4)nc3n3c2sc2ccccc23)cn1")
"inactive"
>>> discrete_label("CC(C)n1c(=O)n(C)c2cnc3cc(F)c(-c4ccc(OCCCN5CCCCC5)nc4)cc3c21 + Cc1[nH]c2ccc(F)cc2c1-c1nc2c3cccnc3c3ncccc3c2[nH]1")
"inactive"
>>> discrete_label("CC1COCCN1c1cc(C2(O)CC3CCC(C2)O3)c2cnn(-c3ccn[nH]3)c2n1 (stereo unspecified) + Cc1cnc(CNC(=O)c2c(=O)c3ccc(N4CCCN(C)CC4)nc3n3c2sc2ccccc23)cn1")
"inactive"
>>> discrete_label("C=CC(=O)N1CCN(c2nc(=O)n(-c3c(C)ccnc3C(C)C)c3nc(-c4c(O)cccc4F)c(F)cc23)C(C)C1 (stereo unspecified) + Cc1cnc(CNC(=O)c2c(=O)c3ccc(N4CCCN(C)CC4)nc3n3c2sc2ccccc23)cn1")
"inactive"
>>> discrete_label("Cn1ncnc1[C@H]1c2n[nH]c(=O)c3cc(F)cc(c23)N[C@@H]1c1ccc(F)cc1 + Cc1cnc(CNC(=O)c2c(=O)c3ccc(N4CCCN(C)CC4)nc3n3c2sc2ccccc23)cn1")
"inactive"
>>> discrete_label("CC[C@@]1(O)C(=O)OCc2c1cc1n(c2=O)Cc2cc3c(CN(C)C)c(O)ccc3nc2-1 + CN(C)c1ccc(Nc2c3ccc(NC(=O)CCN4CCCC4)cc3nc3cc(NC(=O)CCN4CCCC4)ccc23)cc1")
"inactive"
